Test system: Hela
Measurement protocol: In vitro antitumor activity, MTT assay, Hela
Type: cell-based, human
Condition summary: 48 hours
pIC50: −log10 of the molar value.
// pIC50 lookup, one value per entry

{"Compound": "N.N.O=C([O-])C1(C(=O)[O-])CCC1.[Pt+2]", "pIC50": 3.61}
{"Compound": "N.N.[Cl][Pt][Cl] [Cisplatin, cisplatin]", "pIC50": 5.07}
